measured.on: mA2a (Mus musculus (Mouse), UniProt Q60613)
Sequence (Q60613 whole entry): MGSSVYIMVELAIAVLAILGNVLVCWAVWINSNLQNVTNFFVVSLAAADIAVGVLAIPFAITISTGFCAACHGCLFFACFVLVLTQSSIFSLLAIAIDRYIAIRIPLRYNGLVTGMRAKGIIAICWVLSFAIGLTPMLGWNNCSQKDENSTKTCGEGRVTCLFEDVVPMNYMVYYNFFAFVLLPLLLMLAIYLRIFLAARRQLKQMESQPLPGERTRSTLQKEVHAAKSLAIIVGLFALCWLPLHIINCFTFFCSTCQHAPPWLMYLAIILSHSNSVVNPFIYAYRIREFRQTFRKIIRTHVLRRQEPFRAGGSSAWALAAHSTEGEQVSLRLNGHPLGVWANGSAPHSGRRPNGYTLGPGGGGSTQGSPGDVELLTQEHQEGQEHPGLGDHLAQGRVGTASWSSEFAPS
procedure.summary: cAMP inhibition assay in mA2a/CHO cells
Type: cell-based
experimental.parameters: adenosine stimulation, read-out: cAMP & FLIPR IC50 (nM) mA2a
readout.kind: IC50 (nM)
Give just the number in nM; leave the unit off.

Input: Request body: readout IC50, system mA2a (Mus musculus (Mouse), UniProt Q60613), query "Cn1cc(-c2c(-c3ccc4c(ccn4C)c3)nc(N)n3nc(Cc4ncccc4F)nc23)ccc1=O" . Return the value.
Output: 120

Input: # query: IC50 | item "Cn1cc(-c2c(-c3ccc(F)cc3)nc(N)n3nc(Cc4ncccc4F)nc23)ccc1=O" | system: mA2a (Mus musculus (Mouse), UniProt Q60613)
Output: 10

Input: Short answer please: IC50, mA2a (Mus musculus (Mouse), UniProt Q60613), entry "COc1ccc(-c2nc(N)n3nc(Cc4ncccc4F)nc3c2-c2ccc(=O)n(C)c2)cc1"
Output: 42

Input: Return IC50 measured with mA2a (Mus musculus (Mouse), UniProt Q60613) given this compound: "Cn1nc(-c2c(-c3ccc(F)cc3)nc(N)n3nc(Cc4ncccc4F)nc23)ccc1=O"
Output: 25

Input: Please state recorded IC50 (tested on mA2a (Mus musculus (Mouse), UniProt Q60613)) of "CC(C)n1cc(-c2c(-c3ccc(F)cc3)nc(N)n3nc(Cc4ncccc4F)nc23)ccc1=O"
Output: 0.8

Input: For mA2a (Mus musculus (Mouse), UniProt Q60613), provide IC50 of "Cn1cc(-c2c(-c3cccc(F)c3)nc(N)n3nc(Cc4ncccc4F)nc23)ccc1=O" please.
Output: 15

Input: Return IC50 measured with mA2a (Mus musculus (Mouse), UniProt Q60613) given this compound: "Nc1nc(-c2ccc(F)cc2)c(-c2ccc3nccn3c2)c2nc(Cc3ncccc3OC(F)F)nn12"
Output: 0.4

Input: Please state recorded IC50 (tested on mA2a (Mus musculus (Mouse), UniProt Q60613)) of "Nc1nc(-c2ccc(F)cc2)c(-c2ccc(=O)n(CCO)c2)c2nc(Cc3ncccc3F)nn12"
Output: 8.9

Input: Form: Entry = "Cc1cc(-c2c(-c3ccc(F)cc3)nc(N)n3nc(Cc4cccc(C#N)n4)nc23)ccn1" | System = mA2a (Mus musculus (Mouse), UniProt Q60613) | IC50 = ____
Output: 88

Input: Provide value of IC50 for this record tested with mA2a (Mus musculus (Mouse), UniProt Q60613): "Cc1cnc2ccc(-c3c(N4CCC5(COC5)C4)nc(N)n4nc(Cc5ncccc5F)nc34)cn12"
Output: 7190

Input: Test system mA2a (Mus musculus (Mouse), UniProt Q60613); read-out IC50; what value for "Cn1cnc2ccc(-c3c(-c4ncco4)nc(N)n4nc(Cc5c(F)cccc5F)nc34)cc21" ?
Output: 5.1

Input: Fill in the recorded IC50 for this compound, with mA2a (Mus musculus (Mouse), UniProt Q60613) as test system: "CCn1cc(-c2c(-c3ccc(F)cc3)nc(N)n3nc(Cc4ncccc4F)nc23)ccc1=O"
Output: 3.4

Input: Return IC50 measured with mA2a (Mus musculus (Mouse), UniProt Q60613) given this compound: "Cn1cc(-c2c(-c3ccc(C(F)F)cc3)nc(N)n3nc(Cc4ncccc4F)nc23)ccc1=O"
Output: 189

Input: Return IC50 measured with mA2a (Mus musculus (Mouse), UniProt Q60613) given this compound: Cc1cnc2ccc(-c3c(-c4ccc(F)cc4)nc(N)n4nc(CC5CCOC5)nc34)cn12 (single isomer, unassigned; isomer 1)
Output: 1

Input: Please state recorded IC50 (tested on mA2a (Mus musculus (Mouse), UniProt Q60613)) of "CC(C)n1cc(-c2c(-c3ncco3)nc(N)n3nc(Cc4ncccc4F)nc23)ccc1=O"
Output: 4.9

Input: What measured IC50 is associated with "Cc1nc(Cc2nc3c(-c4ccc5nccn5c4)c(-c4ccc(F)cc4)nc(N)n3n2)cs1" on mA2a (Mus musculus (Mouse), UniProt Q60613)?
Output: 12

Input: Item: "Cc1cnc2ccc(-c3c(N4CCCC4)nc(N)n4nc(Cc5c(F)cccc5F)nc34)cn12" Test system: mA2a (Mus musculus (Mouse), UniProt Q60613) Read-out: IC50 Value: ?
Output: 16.5

Input: Lab note: need IC50 for "Nc1nc(-c2ccc(F)cc2)c(-c2ccnnc2)c2nc(Cc3c(F)cccc3F)nn12" on mA2a (Mus musculus (Mouse), UniProt Q60613), anyone have it?
Output: 182

Input: // map "Cc1cnc2ccc(-c3c(-n4ccc(F)n4)nc(N)n4nc(Cc5ncccc5F)nc34)cn12" to recorded IC50 (system: mA2a (Mus musculus (Mouse), UniProt Q60613))
Output: 0.2

Input: Give mA2a (Mus musculus (Mouse), UniProt Q60613) IC50 for "CC(C)n1cc(-c2c(-c3ncco3)nc(N)n3nc(Cc4c(F)cccc4F)nc23)ccc1=O"
Output: 0.9

Input: Look up IC50 with mA2a (Mus musculus (Mouse), UniProt Q60613) for this compound: "Cc1cc(-c2c(-c3ccc(F)cc3)nc(N)n3nc(Cc4ncccc4F)nc23)cn(C)c1=O"
Output: 5.1

Input: Write down the reported IC50 of "Cc1cnc2ccc(-c3c(N4CCCC4)nc(N)n4nc(Cc5ncccc5F)nc34)cn12" , test system: mA2a (Mus musculus (Mouse), UniProt Q60613).
Output: 58.1

Input: Lab note: need IC50 with mA2a (Mus musculus (Mouse), UniProt Q60613) for entry "Nc1nc(-c2ccc(F)cc2)c(-c2ccc(=O)n(C3CC3)c2)c2nc(Cc3ncccc3F)nn12" , please look it up.
Output: 31

Input: Form: Entry = "Cn1cnc2ccc(-c3c(-c4ncco4)nc(N)n4nc(Cc5ncccc5F)nc34)cc21" | System = mA2a (Mus musculus (Mouse), UniProt Q60613) | IC50 = ____
Output: 3.5

Input: GET /values?readout=IC50&system=mA2a (Mus musculus (Mouse), UniProt Q60613)&item= "Cc1cc(-c2c(-c3ccc(F)cc3)nc(N)n3nc(Cc4ncccc4F)nc23)ccn1"
Output: 59

====

measured.on: hA1 (Homo sapiens (Human))
Sequence (P30542 whole entry): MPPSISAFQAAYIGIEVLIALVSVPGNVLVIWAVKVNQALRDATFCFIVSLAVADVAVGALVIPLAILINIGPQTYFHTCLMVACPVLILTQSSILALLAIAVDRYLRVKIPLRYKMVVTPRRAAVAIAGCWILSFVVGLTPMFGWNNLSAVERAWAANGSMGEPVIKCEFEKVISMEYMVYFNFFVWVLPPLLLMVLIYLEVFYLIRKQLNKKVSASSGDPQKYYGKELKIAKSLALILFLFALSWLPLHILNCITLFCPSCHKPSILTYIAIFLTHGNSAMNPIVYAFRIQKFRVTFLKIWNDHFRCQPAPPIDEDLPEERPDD
procedure.summary: FLIPR inhibition assay in hADORA1/CHO (hA1 expressing) cells
Assay type: cell-based
experimental.parameters: hADORA1/CHO cells, FLIPR calcium, adenosine stimulation; read-out: cAMP & FLIPR IC50 (nM) hA1
readout.kind: log10(IC50) (log10 of the value in nM)
Short version: log10 scale, IC50, nM.

Input: Need log10(IC50), item Cn1cc(-c2c(-c3ccc(F)cc3)nc(N)n3nc(Cc4ncc(F)cc4F)nc23)ccc1=O [Example 67]
Output: 1.11

Input: Please give the measured log10(IC50) for this compound: Cc1nc(Cc2nc3c(-c4ccc5nccn5c4)c(-c4ccc(F)cc4)nc(N)n3n2)cs1 [Example 68]
Output: 1.46

Input: Return reported log10(IC50); argument: Cc1coc(-c2nc(N)n3nc(Cc4c(F)cccc4F)nc3c2-c2ccc(=O)n(C)c2)n1 [Example 27]
Output: 2.05

Input: What measured log10(IC50) goes with Nc1nc(-c2ccc(F)cc2)c(-c2ccnnc2)c2nc(Cc3c(F)cccc3F)nn12 [Example 6] ?
Output: 1.32

Input: # lookup: log10(IC50) of Cc1cnc2ccc(-c3c(-c4ncco4)nc(N)n4nc(CC5CCOC5)nc34)cn12 (single isomer, unassigned) [Example 107-2]
Output: 1.54

Input: Could you tell me which log10(IC50) is on file for COc1cccc(-c2nc(N)n3nc(Cc4ncccc4F)nc3c2-c2ccc(=O)n(C)c2)c1 [Example 77] ?
Output: 1.11

Input: Would you kindly share the measured log10(IC50) for Nc1nc(-c2ccc(F)cc2)c(-c2ccc(=O)n(CCO)c2)c2nc(Cc3ncccc3F)nn12 [Example 95] ?
Output: 1.43

Input: Looking for the measured log10(IC50) of Nc1nc(-c2ncco2)c(-c2ccnc(OC(F)F)c2)c2nc(Cc3c(F)cccc3F)nn12 [Example 85] , can you help?
Output: 1.43

Input: Return reported log10(IC50); argument: Nc1cc(-c2c(-c3ccc(F)cc3)nc(N)n3nc(Cc4ncccc4F)nc23)ccn1 [Example 38]
Output: 0.93

====

measured.on: hA2a (Homo sapiens (Human), UniProt P29274)
Sequence (P29274 whole entry): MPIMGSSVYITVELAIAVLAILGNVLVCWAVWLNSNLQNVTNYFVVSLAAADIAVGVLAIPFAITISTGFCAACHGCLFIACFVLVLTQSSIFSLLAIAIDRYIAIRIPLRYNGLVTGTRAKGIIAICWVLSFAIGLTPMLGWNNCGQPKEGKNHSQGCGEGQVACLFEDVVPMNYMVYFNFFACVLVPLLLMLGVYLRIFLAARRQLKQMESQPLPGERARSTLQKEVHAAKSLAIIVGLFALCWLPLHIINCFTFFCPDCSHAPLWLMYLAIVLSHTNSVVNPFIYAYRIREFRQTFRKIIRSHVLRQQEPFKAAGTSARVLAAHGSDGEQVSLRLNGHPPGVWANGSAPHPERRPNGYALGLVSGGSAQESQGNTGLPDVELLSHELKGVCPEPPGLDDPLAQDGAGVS
procedure.summary: cAMP inhibition assay in hA2a/CHO cells
Format: cell-based
experimental.parameters: adenosine stimulation, read-out: cAMP & FLIPR IC50 (nM) hA2a
// boundary case: IC50 equal to 20 nM maps to not satisfied; strictly smaller maps to satisfied

Input: Identify whether the compound "Cn1cc(-c2c(-c3ccc(F)cc3)nc(N)n3nc(Cc4cscn4)nc23)ccc1=O" records IC50 below 20 nM.
Output: not satisfied

Input: Say whether its IC50 is strictly beneath 20 nM. Entry: "Cc1cc(-c2c(-c3ncco3)nc(N)n3nc(Cc4c(F)cccc4F)nc23)cc(N)n1"
Output: not satisfied

Input: Dear colleague, could you confirm whether IC50 of "Cn1cc(-c2c(-c3ccc(F)cc3F)nc(N)n3nc(Cc4ncccc4F)nc23)ccc1=O" falls below 20 nM? Thanks.
Output: not satisfied

Input: Consider "Cc1cnc2ccc(-c3c(-c4ccc(F)cc4)nc(N)n4nc(CCN(C)C)nc34)cn12" . Does its IC50 lie strictly below 20 nM?
Output: satisfied

Input: Hello, I'm reviewing records and need to know if IC50 of "Nc1nc(-c2ccc(F)cc2)c(-c2ccc(=O)n(CCO)c2)c2nc(Cc3c(F)cccc3F)nn12" is below 20 nM. Could you check?
Output: satisfied

Input: Problem: For the compound "Cn1cc(-c2c(-c3ccc(F)cc3)nc(N)n3nc(Cc4c(F)cccc4F)nc23)ccc1=O" , is IC50 under 20 nM?
Output: satisfied

Input: Please indicate whether the reported IC50 of "Cc1cnc2ccc(-c3c(-n4cc(F)cn4)nc(N)n4nc(Cc5ncccc5F)nc34)cn12" is strictly below 20 nM.
Output: satisfied

Input: Below 20 nM on IC50? Entry "Cc1cc(-c2c(-c3ccc(F)cc3)nc(N)n3nc(Cc4nccs4)nc23)ccn1"
Output: not satisfied

Input: Threshold test, IC50 < 20 nM: "Cn1cc(-c2c(-c3ccc(F)cc3)nc(N)n3nc(Cc4ncccc4F)nc23)ccc1=O"
Output: satisfied

Input: Could you please tell me whether IC50 recorded for "Cn1cc(-c2c(-c3ccc(Cl)cc3)nc(N)n3nc(Cc4ncccc4F)nc23)ccc1=O" is less than 20 nM?
Output: not satisfied

Input: Consider "Cn1cc(-c2c(-c3ccc(C(F)(F)F)cc3)nc(N)n3nc(Cc4ncccc4F)nc23)ccc1=O" . Does its IC50 lie strictly below 20 nM?
Output: not satisfied

Input: Check if IC50 falls below 20 nM for "Nc1nc(-c2ccc(F)cc2)c(-c2ccc3nncn3c2)c2nc(Cc3ncccc3F)nn12" .
Output: not satisfied
